// provenance: PubChem BioAssay AID1645838

Consider the following molecules; for each one, report its z-score.
assay: supercomplex reporter luminescence per Hoechst cell count – Hoechst nuclei count (AID 1645838); details: Cells, luminescence/Hoechst cell count ratio, library stock concentration (final well concentration not given) 80 uM, stronger effect = higher value;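 further: control cybrid cells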;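 on z-score: higher means more mitochondrial supercomplex formation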
In all, about 2,000 compounds went through this assay and about 100 (5%) were called active. The list comes from a sample in which actives are over-represented; it also holds close analogues and randomly drawn compounds.
One number for each entry.

For orientation, consider the following solved cases.
Cc1ccc(C(=O)Nc2cccc(C(F)(F)F)c2)cc1Nc1nc(-c2cccnc2)nc2c1cnn2C = -0.121
Cc1ccc(NC(=O)c2cccc(C(C)(C)C#N)c2)cc1Nc1ccc2ncn(C)c(=O)c2c1 = 1.5

Query: Please give the measured z-score for this molecule: COC1CC2CCC(C)C(O)(O2)C(=O)C(=O)N2CCCCC2C(=O)OC(C(C)CC2CCC(O)C(OC)C2)CC(=O)C(C)C=C(C)C(O)C(OC)C(=O)C(C)CC(C)C=CC=CC=C1C (stereo not drawn)
Response: 0.756

###

Consider the following compounds; for each one, report its cell count.
assay: supercomplex reporter luminescence per Hoechst cell count – Hoechst nuclei count (AID 1645838); settings: Cells, luminescence/Hoechst cell count ratio, measured here: cell number, Hoechst nuclei count, library stock concentration (final well concentration not given) 278 uM;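 further: control cybrid cells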
Among all 2,000 compounds or so, about 100 (5%) were called active. The sample holds actives, similar compounds and a random draw of the others, so the mix is not that of the screen.
Answers are plain numbers.

For orientation, consider the following solved cases.
CC(C)NCC(O)c1ccc(O)c(O)c1 (centres undefined) = 6030
COC(=O)NC(C)CNc1nccc(-c2cn(C(C)C)nc2-c2cc(Cl)cc(NS(C)(=O)=O)c2F)n1 (centres undefined) = 6190
Nc1nccc2c1ncn2C1C=C(CO)C(O)C1O (centres undefined) = 4240

I'm hoping you can list cell count for every compound here, please.
1. COc1cccc(OC)c1-c1ccc(CC(NC(=O)c2c(Cl)cccc2Cl)C(=O)O)cc1 (centres undefined)
2. CCOc1cc(CC(=O)NC(CC(C)C)c2ccccc2N2CCCCC2)ccc1C(=O)O (centres undefined)
3. COc1cc2c(Oc3ccc4[nH]c(C)cc4c3F)ncnc2cc1OCCCN1CCCC1
4. COC(=O)C(NC(=O)c1cc(-c2ccccc2)nc2ccccc12)c1ccccc1 (centres undefined)
5. CCCCCCCCCCC(=O)O
6. CCN(CC)c1ccc(C=NNC(=O)c2ccc(O)cc2)cc1

Response:
[5740, 5070, 4920, 6570, 6810, 6590]

###

Consider the following compounds; for each one, report its cell count.
assay: supercomplex reporter luminescence per Hoechst cell count – Hoechst nuclei count (AID 1645838); conditions: Cells, luminescence/Hoechst cell count ratio, measured here: cell number, Hoechst nuclei count;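 further: control cybrid cells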
Among all 2,000 compounds or so, about 100 (5%) were called active. This excerpt belongs to a sample that is enriched for actives.
Numbers only.

CCCCCCCCCCCC(=O)O = 5210
CCCCC[C@H](O)/C=C/[C@@H]1[C@H](C/C=C\CCCC(=O)O)[C@@H](O)C[C@H]1O = 5540
CCCCCCCCCCCCCCCCC(=O)NCCO = 5880

I'm hoping you can list cell count for every compound here, please.
1. CCCCCCCCCCCCCCCC(=O)SCCOP(=O)([O-])OCC[N+](C)(C)C
2. CCCCCCCC/C=C\CCCCCCCC(=O)NCCS(=O)(=O)O

Response:
1: 5610; 2: 5290

I'm hoping you can list cell count for every compound here, please.
1. CCCCCC(=O)CC[C@H]1[C@H](O)CC(=O)[C@@H]1C/C=C\CCCC(=O)O
2. CC/C=C\C/C=C\C/C=C\CCCCCCCC(=O)OCC
3. O=C(O)CCC/C=C\C[C@H]1[C@@H](/C=C/[C@@H](O)CCc2ccccc2)[C@H](O)C[C@@H]1O
4. C[C@H](N)C(=O)CCCCCC(=O)O
5. CCCCC[C@H](O)/C=C/[C@H]1CCC(=O)[C@@H]1C/C=C\CCCC(=O)O
6. CCCCCCCCCCCCCCNC(=O)C1CCCCC1
7. CCCCC[C@@](C)(O)/C=C/[C@@H]1[C@@H](C/C=C\CCCC(=O)OC)[C@@H](O)C[C@H]1O

Response:
[5260, 5260, 5160, 5410, 5430, 5060, 5030]

I'm hoping you can list cell count for every compound here, please.
1. CCCCC[C@@H](O)CC[C@H]1[C@H](O)CC(=O)[C@@H]1CCCCCCC(=O)O
2. CCCCC/C=C\C/C=C\C/C=C\C/C=C\CCCCNC(=O)c1ccc(O)cc1
3. CCCCCC(=O)CC[C@H]1[C@H](O)CC(=O)[C@@H]1CCCCCCC(=O)O
4. C[C@@H](O)CCC[C@@H](O)/C=C/[C@@H]1[C@@H](CCCCCCC(=O)O)[C@@H](O)C[C@H]1O

Response:
[5360, 5700, 3870, 5060]

###

assay: supercomplex reporter luminescence per Hoechst cell count – Hoechst nuclei count (AID 1645838); conditions: Cells, luminescence/Hoechst cell count ratio, measured here: cell number, Hoechst nuclei count, library stock concentration (final well concentration not given) 10 mM;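 further: control cybrid cells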
The campaign covered roughly 2,000 compounds. About 100 (5%) were called active. Many of the other results were omitted from the sample, so actives are more common in it than they were.
VALUE_TYPE: cell count

For orientation, consider the following solved cases.
COC1CC2CCC(C)C(O)(O2)C(=O)C(=O)N2CCCCC2C(=O)OC(C(C)CC2CCC(O)C(OC)C2)CC(=O)C(C)C=C(C)C(O)C(OC)C(=O)C(C)CC(C)C=CC=CC=C1C (stereo not drawn) = 2720
CCc1nc(N)nc(N)c1-c1ccc(Cl)cc1 = 2210

We now examine a further molecule.
Query: Please give the measured cell count for this molecule: CSCCC(NC(=O)C(CC(C)C)NC(=O)CNC(=O)C(NC(=O)C(Cc1ccccc1)NC(=O)C(CO)NC(=O)C(CC(=O)O)NC(=O)[C@H](NC(=O)C(CCCCN)NC(=O)C(N)Cc1cnc[nH]1)C(C)O)C(C)C)C(N)=O (stereo partly drawn)
Response: 6040

###

Consider the following compounds; for each one, report its z-score.
assay: supercomplex reporter luminescence per Hoechst cell count – Hoechst nuclei count (AID 1645838); details: Cells, luminescence/Hoechst cell count ratio, library stock concentration (final well concentration not given) 80 uM, stronger effect = higher value;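 further: control cybrid cells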;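 on z-score: higher means more mitochondrial supercomplex formation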
In all, about 2,000 compounds went through this assay and about 100 (5%) were called active. The entries come from a sample that favours actives as a whole.

For orientation, consider the following solved cases.
COC(=O)C(CCSC)NC(=O)c1ccc(NCC(N)CS)cc1-c1ccccc1 (centres undefined) = -0.72 (inactive)
Cn1c(SCC(=O)N2CCCC2C(=O)Nc2ccccc2-c2ccccc2)nc2ccccc21 (centres undefined) = -0.422 (inactive)
CC(C)(C)n1nc(-c2ccc(Cl)cc2)c2c(N)ncnc21 = -0.14 (inactive)

We now examine a further compound.
Query: Please give the measured z-score for this compound: `COc1cc(C(=O)N2CCC(N3CCN(C)CC3)CC2)ccc1Nc1ncc2c(n1)N(C)c1ccccc1C(=O)N2C`
Response: -0.05 (inactive)

###

test: supercomplex reporter luminescence per Hoechst cell count – Hoechst nuclei count (AID 1645838); details: Cells, luminescence/Hoechst cell count ratio, library stock concentration (final well concentration not given) 278 uM, stronger effect = higher value;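 further: control cybrid cells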;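 on z-score: higher means more mitochondrial supercomplex formation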
Hit rate of the full screen: of about 2,000 compounds, about 100 (5%) were called active. This excerpt belongs to a sample that is enriched for actives.
VALUE_TYPE: z-score

For orientation, consider the following solved cases.
O=C(NNS(=O)(=O)c1ccccc1C(F)(F)F)c1cc2cc(Cl)ccc2o1 = -0.121 (inactive)
CN(CC=CC#CC(C)(C)C)Cc1cccc2ccccc12 = -0.114 (inactive)
O=C(C(=O)c1ccc(Cl)cc1)c1ccc(Cl)cc1 = 0.0434 (inactive)
NC(=O)Nc1sc(-c2ccc(F)cc2)cc1C(N)=O = 0.156 (inactive)
O=C(NC1CCN(CC(F)(F)F)CC1)c1ccc(-c2cccc(F)c2)nc1 = 0.0438 (inactive)

I'm hoping you can list z-score for every molecule here, please.
1. COc1cc(C(=O)N(CCC2CCCN2C)CC(C)=Cc2ccccc2F)cc(OC)c1OC (stereo unspecified)
2. COc1cc2nc(N3CCCN(C)CC3)nc(NC3CCN(Cc4ccccc4)CC3)c2cc1OC
3. COc1cc(C(C)C)c2c(c1)S(=O)(=O)N(COc1cc(=O)n3cccc(OCCN4CCCCC4)c3n1)C2=O

Response:
-0.112 (inactive)
-0.471 (inactive)
-0.0963 (inactive)

###

Consider the following compounds; for each one, report its z-score.
experiment: supercomplex reporter luminescence per Hoechst cell count – Hoechst nuclei count (AID 1645838); settings: Cells, luminescence/Hoechst cell count ratio, library stock concentration (final well concentration not given) 46 uM, stronger effect = higher value;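 further: control cybrid cells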;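 on z-score: higher means more mitochondrial supercomplex formation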
Among all 2,000 compounds or so, about 100 (5%) were called active. The full list was thinned out, with actives kept by preference.
Answers are plain numbers.

For orientation, consider the following solved cases.
CCOC(=O)NCCCC(=O)NCCc1ccccc1 = -0.07
CCN(CC)c1ccc(C=NNC(=O)c2ccc(O)cc2)cc1 = -0.275
CCOC(=O)C(N)Cc1ccc(-c2cc(OC(c3ccc(Cl)cc3-n3ccc(C)n3)C(F)(F)F)nc(N)n2)cc1 (stereo not given) = -0.503
O=C(Nc1cccc(Nc2ncc(Br)c(NCCc3cnc[nH]3)n2)c1)N1CCCC1 = -0.139

Query: Please give the measured z-score for this compound: CC1CC2OC2C=CC=CC(=O)Cc2c(Cl)c(O)cc(O)c2C(=O)O1 (stereo not given)
Response: -0.774
